- System: SN12C renal
- Assay name: NCI tumour cell line growth inhibition, 48 h
Property label: TGI

Look over these answered cases.
Item smiles: Cc1c(C)c2c(c(N)c1C#N)C(=O)N(NC(=O)c1ccccc1)C2=O
TGI: > 100 µM
//
Item smiles: Oc1ccc(Nc2ncnc3c2sc2ncccc23)cc1
TGI: > 100 µM

*Q* Data request, read-out TGI, for CC(=O)N(C(C)=O)c1ncc(-n2nc(-c3ccccc3)cc2-c2ccccc2)c(-c2ccccc2)n1
*A* > 10 µM

*Q* Data request, read-out TGI, for Nc1c(C(=O)O)nnc2ccc(Cl)cc12
*A* > 100 µM

###

Measured TGI of individual entries
- System: NCI-H226 lung
- Assay name: NCI tumour cell line growth inhibition, 48 h

Look over these answered cases.
Molecule: c1ccc2cc(-c3cc4ccccc4s3)ccc2c1
Target desc: NCI-H226 lung
TGI: > 100 µM

Molecule: CC1(C)S[C@@H]2[C@H](NC(=O)C3(N)CCCCC3)C(=O)N2[C@H]1C(=O)O
Target desc: NCI-H226 lung
TGI: > 100 µM

Molecule: C=C1C(=O)OC2CC(C)C(C(CC(C)=O)OC(C)=O)=CCC12 (stereo not given)
Target desc: NCI-H226 lung
TGI: > 66.4 µM

Molecule: O=C1/C(=C/c2ccc(Br)s2)NC(=S)N1c1ccccc1
Target desc: NCI-H226 lung
TGI: > 100 µM

*Q* Data request, read-out TGI, for CCOC(=O)Nc1[nH]cc(-c2ccccc2)c1C#N
*A* > 100 µM

###

Measured TGI of individual entries
- System: M14 melanoma
- Assay name: NCI tumour cell line growth inhibition, 48 h
// note: answer is a bare numeric in µM

Item smiles: CC(=O)CCn1ncc(Cl)c(Cl)c1=O
TGI [µM]: 29.7

*Q* Query for M14 melanoma: what TGI does the record show for COc1ccc(Sc2[nH]c(C(C)=O)c3ccccc23)cc1 ?
*A* 25.1

###

- Tested on: TK-10 renal
- Assay name: NCI tumour cell line growth inhibition, 48 h; in the data active = GI50 below about 0.43 µM; inactive = the rest
Pick one: Y = active, N = inactive

Molecule: CC(=O)OC1COC(Oc2c(C)c3c4c(c2O)[C@@H](C)CC[C@@H]4[C@@H](C)C[C@H]3C=C(C)C)C(O)C1OC(C)=O (stereo partly drawn)
Target desc: TK-10 renal
Label value: N
--
Molecule: COC(=O)C[C@](O)(CCCC(C)(C)O)C(=O)O[C@@H]1C(OC)=C[C@]23CCCN2CCc2cc4c(cc2[C@H]13)OCO4
Target desc: TK-10 renal
Label value: Y
--
Molecule: CCN1CCN(C(=O)[C@@]2(C)CC[C@]3(C)CC[C@]4(C)C(=CC(=O)[C@@H]5[C@@]6(C)CC[C@H](OC7C[C@@H](O)[C@@H](O)C(C)O7)C(C)(C)[C@@H]6CC[C@]54C)[C@@H]3C2)CC1 (stereo partly drawn)
Target desc: TK-10 renal
Label value: N
--
Molecule: CO/N=C(/C)c1cccc(Nc2cc(-n3nnc4ccccc43)nc3ccccc23)c1
Target desc: TK-10 renal
Label value: N

*Q* Record request — test call for c1ccc(-c2nnc(-c3ccccn3)s2)nc1
*A* N

*Q* Record request — test call for O=C(O)COc1ccc2c(=O)c3sc4c(=O)c5ccccc5c(=O)c4c3c(=O)c2c1
*A* N

*Q* Record request — test call for N.N.N.N.O=C([O-])CCl.O=C([O-])CCl.[Co+3].[O-][Cl+3]([O-])([O-])[O-]
*A* N

*Q* Record request — test call for CN1CCN(C2CCN(C(=O)Nc3cc(Oc4ccc(NC(=O)C5(C(=O)Nc6ccc(F)cc6)CC5)c(F)c4)ccn3)CC2)CC1
*A* Y
